# System: OVCAR-3
# assay-info: NCI tumour cell line growth inhibition, 48 h
Calls of active or inactive are those of the source. Rule as the data show it: active = GI50 up to about 1.1 µM and inactive = higher.
Outcomes: yes (1) for active, no (0) for inactive

>  <compound>
Cc1cc(-c2cccc3ccccc23)c(C#N)c(=S)n1C1OC(CO)C(O)C(O)C1O (configuration not stated)

>  <class-name>
no (0)

$$$$
>  <compound>
CCOC(=O)c1cnc2sc3ccc4ccccc4c3n2c1=O

>  <class-name>
no (0)

$$$$
>  <compound>
CC1CN1c1c(C(=O)/C=C/c2ccc(F)cc2)c(-c2ccccc2)nn(C)c1=O (configuration not stated)

>  <class-name>
no (0)

$$$$
>  <compound>
N#CC1C(C#N)C2(c3ccccc3)C(c3ccccc3)=NN(c3ccccc3)CC12 (configuration not stated)

>  <class-name>
no (0)

$$$$
>  <compound>
N=C(N)C1CN(CC=O)C(=O)NC1=O (configuration not stated)

>  <class-name>
no (0)

$$$$
>  <compound>
COC(=O)CCCCC/C(=C\C(=O)C(Cl)(Cl)Cl)OC

>  <class-name>
no (0)

$$$$
>  <compound>
O=C1C=C2SC3C[C@@]24CC1[N+]1=c2c4c(c(O)c4c2=C(C=N4)CC1)N3

>  <class-name>
yes (1)

$$$$
>  <compound>
COC(=O)C(C)(/N=C/c1ccccc1)c1ccccc1 (configuration not stated)

>  <class-name>
no (0)

$$$$
>  <compound>
COC(=O)C12OC3CO[Si](C(C)C)(C(C)C)O[Si](C(C)C)(C(C)C)OC3C1Oc1nc(=O)ccn12 (configuration not stated)

>  <class-name>
no (0)

$$$$
>  <compound>
Clc1ccc(-c2c(C3=NCCCN3)nnn2-c2ccc(Cl)cc2)cc1

>  <class-name>
no (0)

$$$$
>  <compound>
O=C(c1ccccc1)c1nnn(Cc2ccccc2Cn2nnc(C(=O)c3ccccc3)c2C(=O)c2ccccc2)c1C(=O)c1ccccc1

>  <class-name>
no (0)

$$$$
>  <compound>
CCN(CC)CCCn1cnc2ncccc2c1=O

>  <class-name>
no (0)

$$$$
